# ASSAYED_TARGET: Cannabinoid receptor (Mus musculus) (UniProt P47746+P47936)
# Sequence (P47746 whole entry, looked up): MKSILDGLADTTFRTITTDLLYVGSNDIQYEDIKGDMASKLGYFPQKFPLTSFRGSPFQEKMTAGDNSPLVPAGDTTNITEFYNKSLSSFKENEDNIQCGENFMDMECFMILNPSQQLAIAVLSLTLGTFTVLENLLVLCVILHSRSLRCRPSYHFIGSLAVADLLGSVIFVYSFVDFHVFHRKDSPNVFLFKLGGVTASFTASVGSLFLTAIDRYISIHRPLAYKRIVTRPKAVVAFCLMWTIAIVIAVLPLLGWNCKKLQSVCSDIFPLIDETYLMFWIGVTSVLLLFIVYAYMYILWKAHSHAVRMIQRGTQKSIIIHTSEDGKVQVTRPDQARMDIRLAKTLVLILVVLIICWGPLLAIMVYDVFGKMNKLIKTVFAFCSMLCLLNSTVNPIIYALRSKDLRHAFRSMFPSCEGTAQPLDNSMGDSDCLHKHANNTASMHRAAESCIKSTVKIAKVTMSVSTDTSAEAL
# Sequence (P47936 whole entry, looked up): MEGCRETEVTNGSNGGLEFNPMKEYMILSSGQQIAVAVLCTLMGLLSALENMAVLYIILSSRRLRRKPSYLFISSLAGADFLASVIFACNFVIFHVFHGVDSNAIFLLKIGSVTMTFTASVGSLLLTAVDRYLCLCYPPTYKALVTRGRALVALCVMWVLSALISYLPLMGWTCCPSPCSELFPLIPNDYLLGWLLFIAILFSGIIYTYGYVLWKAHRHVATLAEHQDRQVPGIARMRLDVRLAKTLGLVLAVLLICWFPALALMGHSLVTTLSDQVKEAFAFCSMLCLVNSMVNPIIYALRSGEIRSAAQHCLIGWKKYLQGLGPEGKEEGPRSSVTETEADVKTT
# PROTOCOL_DESCRIPTION: Selectivity for CB1 receptor over CB2 receptor in CD1 mouse
# Assay type: protein assay
PROPERTY_NAME: Ratio Ki

Find the measured Ratio Ki of Cc1ccc2c(c1)CCCc1c(C(=O)NN3CCCCC3)nn(-c3ccc(Cl)cc3Cl)c1-2 and report it.
88.5

Let me know recorded Ratio Ki for O=C(Nc1ccccc1)c1nn(-c2ccc(Cl)cc2Cl)c2c1CCCc1cc(Cl)ccc1-2 , thanks.
0.33

Specify Ratio Ki for O=C(NN1CCCCC1)c1nn(-c2ccc(Cl)cc2Cl)c2c1CCCc1c(Cl)cccc1-2 and stop.
3.21

Give Ratio Ki for O=C(NN1CCCCC1)c1nn(-c2ccc(Cl)cc2Cl)c2c1CCCc1cc(Cl)ccc1-2
60000
